Biological target: TEAD1(210-426) binding to YAP(50-100) (Homo sapiens)
Measurement kind: IC50

• O=c1cc(-c2nn(-c3ccc(C(F)(F)F)cc3)c3ccccc23)ccn1Cc1ccccn1 [Compound 12] = ≤ 100 nM
• O=c1cc(-c2nn(-c3ccc(C(F)(F)F)cc3)c3c(F)cccc23)ccn1Cc1ccnc(OCCO)n1 [Compound 133] = ≤ 100 nM
• CNc1nccc(Cn2ccc(-c3nn(-c4ccc(C(F)(F)F)cc4)c4ncccc34)cc2=O)n1 [Compound 97] = ≤ 100 nM
• Cn1ccc(Cn2ccc(-c3cn(-c4ccc(C(F)(F)F)cc4)c4ncccc34)cc2=O)n1 [Compound 64] = ≤ 100 nM
• CNc1nccc(Cn2ccc(-c3nn(-c4ccc(C5COC5)cc4)c4c(F)cccc34)cc2=O)n1 [Compound 152] = ≤ 100 nM
• Cn1cc(Cn2ccc(-c3nn(-c4ccc(C(F)(F)F)cc4)c4ccccc34)cc2=O)cn1 [Compound 36] = 100 to 1000 nM
• Cn1ccc(Cn2ccc(-c3nn(-c4ccc(C(F)(F)F)cc4)c4ncccc34)cc2=O)n1 [Compound 111] = ≤ 100 nM
• O=c1cc(-c2nn(-c3ccc(C(F)(F)F)cc3)c3cccc(F)c23)ccn1Cc1ccnc(OCCO)n1 [Compound 153] = ≤ 100 nM
• O=c1cc(-c2nn(-c3ccc(C(F)(F)F)cc3)c3ccccc23)ccn1Cc1nccc(N2CC[C@H](O)C2)n1 [Compound 55] = ≤ 100 nM
• O=c1cc(-c2nn(-c3ccc(C(F)(F)F)cc3)c3ccccc23)ccn1Cc1cccnc1 [Compound 18] = ≤ 100 nM
• CNc1nccc(Cn2ccc(-c3nn(-c4ccc(C(F)(F)F)cc4C)c4ncccc34)cc2=O)n1 [Compound 57] = ≤ 100 nM
• O=c1cc(-c2nn(-c3ccc(C(F)(F)F)cc3)c3ncccc23)ccn1Cc1ccnc(OCCO)n1 [Compound 126] = ≤ 100 nM
• C[C@@H](c1ccccn1)n1ccc(-c2nn(-c3ccc(C(F)(F)F)cc3)c3cc(CO)ccc23)cc1=O [Compound 28] = ≤ 100 nM
• C[C@@H](c1ccccn1)n1ccc(-c2nn(-c3ccc(C(F)(F)F)cc3)c3ncccc23)cc1=O [Compound 20] = ≤ 100 nM
• O=c1cc(-c2nn(-c3ccc(C(F)(F)F)cc3)c3ccccc23)ccn1Cc1ncccn1 [Compound 15] = ≤ 100 nM
• CN(CCO)c1nccc(Cn2ccc(-n3nc(-c4ccc(C(F)(F)F)cc4)c4c(F)cccc43)cc2=O)n1 [Compound 139] = ≤ 100 nM
• CNc1nccc([C@H](C)n2ccc(-c3nn(-c4ccc(C(F)(F)F)cc4)c4ncccc34)cc2=O)n1 [Compound 131] = ≤ 100 nM
• CNc1ccnc(Cn2ccc(-n3nc(-c4ccc(C(F)(F)F)cc4)c4nccnc43)cc2=O)n1 [Compound 49] = ≤ 100 nM
• COCCNc1ccnc(Cn2ccc(-c3nn(-c4ccc(C(F)(F)F)cc4)c4ccccc34)cc2=O)n1 [Compound 78] = ≤ 100 nM
• C[C@@H](c1ccccn1)n1ccc(-c2nn(-c3ccc(C(F)(F)F)cc3)c3ccc(C#N)cc23)cc1=O [Compound 25] = 100 to 1000 nM
• CNc1nccc(Cn2ccc(-c3nn(-c4ccc(C(F)(F)F)cc4)c4cc(F)ccc34)cc2=O)n1 [Compound 141] = ≤ 100 nM
• CNc1nccc(Cn2ccc(-c3nn(-c4ccc(OC(F)(F)F)cc4)c4ncccc34)cc2=O)n1 [Compound 59] = ≤ 100 nM
• C[C@@H](c1ccccn1)n1ccc(-c2nn(-c3ccc(C(F)(F)F)cc3)c3cc(C(N)=O)ccc23)cc1=O [Compound 30] = > 1000 nM
• O=c1cc(-c2nn(-c3ccc(C(F)(F)F)cc3)c3ncccc23)ccn1Cc1ccn(CCO)n1 [Compound 74] = ≤ 100 nM
• CC(C)n1ccc(-c2nn(-c3ccc(C(F)(F)F)cc3)c3cccnc23)cc1=O [Compound 8] = 100 to 1000 nM
• CNc1ccnc(Cn2ccc(-c3nn(-c4ccc(C(F)(F)F)cc4)c4c(F)cccc34)cc2=O)n1 [Compound 129] = ≤ 100 nM
• O=c1cc(-c2nn(-c3ccc(C(F)(F)F)cc3)c3ncccc23)ccn1Cc1cccnc1 [Compound 88] = ≤ 100 nM
• C[C@@H](c1ccccn1)n1ccc(-c2nn(-c3cccc(C(F)(F)F)c3)c3cccnc23)cc1=O [Compound 6] = 100 to 1000 nM
• Nc1ccnc(Cn2ccc(-c3nn(-c4ccc(C(F)(F)F)cc4)c4ncccc34)cc2=O)n1 [Compound 110] = ≤ 100 nM
• Nc1nccc(Cn2ccc(-c3nn(-c4ccc(C(F)(F)F)cc4)c4ccccc34)cc2=O)n1 [Compound 61] = ≤ 100 nM

====

pIC50 values for the molecules below.
Molecular target: TEAD1(210-426) binding to YAP(50-100) (Homo sapiens, UniProt P28347)
Sequence (P28347 209-426): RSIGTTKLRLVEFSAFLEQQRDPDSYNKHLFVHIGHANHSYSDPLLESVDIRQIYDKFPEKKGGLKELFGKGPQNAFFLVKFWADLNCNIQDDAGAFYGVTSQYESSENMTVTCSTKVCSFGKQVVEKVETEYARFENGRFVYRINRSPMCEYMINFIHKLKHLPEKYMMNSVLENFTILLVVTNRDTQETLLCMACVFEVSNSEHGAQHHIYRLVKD
Experiment: TR-FRET Assay for TEAD1(210-426) Binding to YAP(50-100)
Details: His-TEAD 10 nM, YAP-Biotin peptide 50 nM
pIC50: −log10 of the molar value.
Measurement kind: pIC50

- CNc1nccc(Cn2ccc(-c3nn(-c4ccc(C(F)(F)F)cc4)c4ccccc34)cc2=O)n1: ≥ 7.00
- C[C@@H](c1ccccn1)n1ccc(-c2nn(-c3ccc(C(F)(F)F)cc3)c3ccccc23)cc1=O: ≥ 7.00
- C[C@@H](c1ccccn1)n1ccc(-c2nn(-c3ccc(C(F)(F)F)cc3)c3ccc(C(N)=O)cc23)cc1=O: 6.00 to 7.00
